# MEASUREMENT_TARGET: T1, FZD8 cysteine-rich domain (CRD), MYC-tagged and GPI-anchored on CHO cells (human, UniProt Q498S8 31-155 (rat entry), GPI anchor)
# T1 construct: also called FZD8 CRD; CHO-myc-FZDGPI; not shown: MYC tag and GPI anchor signal
# T1 sequence: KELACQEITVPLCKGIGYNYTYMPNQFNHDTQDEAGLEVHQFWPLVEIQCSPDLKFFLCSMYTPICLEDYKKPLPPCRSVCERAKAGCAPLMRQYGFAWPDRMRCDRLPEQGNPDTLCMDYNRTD
# PROTOCOL_SUMMARY: flow cytometry, CHO-CRD cells;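 note: flow cytometry of Fab binding to CHO cells overexpressing a Frizzled CRD, with binding defined as median fluorescence over twice that of CHO cells lacking any Frizzled CRD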
OBSERVED_PROPERTY: median fluorescence
Please respond with just the number, no unit label.

Recorded result, Fab-2918 (Fab, V domains shown, Fab; also called Fv-2918) VH: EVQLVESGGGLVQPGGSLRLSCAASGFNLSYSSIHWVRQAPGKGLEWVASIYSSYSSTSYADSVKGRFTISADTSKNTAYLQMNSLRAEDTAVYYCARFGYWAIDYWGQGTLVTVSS VL: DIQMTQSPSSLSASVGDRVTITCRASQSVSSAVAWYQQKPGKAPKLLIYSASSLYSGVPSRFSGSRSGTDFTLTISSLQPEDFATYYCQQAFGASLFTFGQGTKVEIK , median fluorescence: 7.57

Recorded result, Fab-2935 (Fab, V domains shown, Fab; also called Fv-2935) VH: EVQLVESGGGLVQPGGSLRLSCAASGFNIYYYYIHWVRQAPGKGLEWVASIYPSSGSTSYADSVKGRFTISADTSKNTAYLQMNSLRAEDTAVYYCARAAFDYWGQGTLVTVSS VL: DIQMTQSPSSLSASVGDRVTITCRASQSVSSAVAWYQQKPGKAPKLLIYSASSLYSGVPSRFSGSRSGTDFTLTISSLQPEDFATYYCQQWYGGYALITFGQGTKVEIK , median fluorescence: 15.8

Recorded result, Fab-2903 (Fab, V domains shown, Fab; also called Fv-2903) VH: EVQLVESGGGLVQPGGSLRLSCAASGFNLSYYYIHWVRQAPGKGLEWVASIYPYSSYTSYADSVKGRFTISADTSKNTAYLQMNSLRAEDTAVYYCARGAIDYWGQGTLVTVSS V domain: DIQMTQSPSSLSASVGDRVTITCRASQSVSSAVAWYQQKPGKAPKLLIYSASSLYSGVPSRFSGSRSGTDFTLTISSLQPEDFATYYCQQWGGGSSLFTFG , median fluorescence: 13.7

Ref: patent US20210253718A1
